# Test system: Plasmodium berghei
# method_description: Screen against P. berghei liver stage (PbLuc), transformed with Luciferase, at 10uM
# Assay type: functional, HepG2
# condition_set: tested at 10 uM
About 8,600 (12%) of roughly 69,000 compounds showed an effect of 50% or more. This excerpt belongs to a sample that is enriched for strong results.
quantity_measured: INHIBITION
# output: numeric value plus its unit

Sample records with INHIBITION:
| molecule | INHIBITION |
| --- | --- |
| CCC(Nc1ccc(CCN2CCCCC2)cc1)C(N)=O (stereo not drawn) | 57.2% |
| CC(C)N1CCCC2(CCN(Cc3nncn3C(C)C)C2)C1=O (stereo not drawn) | -27.4% |

Cc1ncc(CN2CCN(C(=O)C3CCC3)[C@@H]3CS(=O)(=O)C[C@@H]32)cn1 yielded INHIBITION of 14.8%
